# Target Desc: 5-HT1A receptor (Homo sapiens)
# Sequence (P08908 whole entry): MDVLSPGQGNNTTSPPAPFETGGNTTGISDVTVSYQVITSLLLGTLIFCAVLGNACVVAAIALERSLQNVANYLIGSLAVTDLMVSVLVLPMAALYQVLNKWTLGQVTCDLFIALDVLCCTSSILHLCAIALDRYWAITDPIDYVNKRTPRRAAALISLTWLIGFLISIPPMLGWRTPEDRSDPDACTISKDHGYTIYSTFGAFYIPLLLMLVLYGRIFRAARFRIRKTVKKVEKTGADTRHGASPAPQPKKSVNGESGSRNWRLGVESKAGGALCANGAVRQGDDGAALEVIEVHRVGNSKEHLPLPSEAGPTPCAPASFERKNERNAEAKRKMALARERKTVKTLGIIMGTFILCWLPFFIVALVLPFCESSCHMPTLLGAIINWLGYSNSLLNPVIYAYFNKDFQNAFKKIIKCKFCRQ
# Experimental Details: FLIPR Ca2+ flux agonist assay at 5-HT1A (CHO cells)
Where a name gives a salt, the structure may show the parent alone.
Param label: returns t when EC50 < 0.7 µM, returns f otherwise, including exact equality.

Compound: CCN(C)CCc1c[nH]c2cccc(O)c12 [Compound 4-HO-MET, reference compound]
Target Desc: 5-HT1A receptor (Homo sapiens)
Classification: f
//
Compound: CN(C)CCc1c[nH]c2cccc(O)c12 [Psilocin, psilocin, reference compound]
Target Desc: 5-HT1A receptor (Homo sapiens)
Classification: f
//
Compound: Oc1cccc2[nH]cc(CCN3CCC3)c12
Target Desc: 5-HT1A receptor (Homo sapiens)
Classification: f
//
Compound: CCN(C)CCc1c[nH]c2ccccc12 [MET, reference compound]
Target Desc: 5-HT1A receptor (Homo sapiens)
Classification: f
//
Compound: COc1ccc2[nH]cc(CCN3CCC3)c2c1 [Compound 3, fumarate]
Target Desc: 5-HT1A receptor (Homo sapiens)
Classification: t
//
Compound: c1ccc2c(CCN3CCC3)c[nH]c2c1 [Compound 1, fumarate]
Target Desc: 5-HT1A receptor (Homo sapiens)
Classification: f

###

# Target Desc: 5-HT2A receptor (Homo sapiens)
# Construct: host or cells: HEK293
# Sequence (P28223 whole entry): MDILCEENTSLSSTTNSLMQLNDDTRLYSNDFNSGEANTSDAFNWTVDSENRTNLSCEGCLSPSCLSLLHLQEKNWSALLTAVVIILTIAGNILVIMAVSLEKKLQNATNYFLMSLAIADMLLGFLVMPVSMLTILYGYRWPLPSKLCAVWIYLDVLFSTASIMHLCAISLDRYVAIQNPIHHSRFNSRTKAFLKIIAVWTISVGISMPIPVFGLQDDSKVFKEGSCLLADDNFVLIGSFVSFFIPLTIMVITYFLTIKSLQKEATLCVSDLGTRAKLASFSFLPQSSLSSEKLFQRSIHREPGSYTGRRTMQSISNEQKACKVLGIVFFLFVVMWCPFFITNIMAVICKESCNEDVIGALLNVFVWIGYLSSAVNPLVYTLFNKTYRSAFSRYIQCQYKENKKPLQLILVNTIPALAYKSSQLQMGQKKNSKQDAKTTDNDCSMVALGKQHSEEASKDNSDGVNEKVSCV
# Experimental Details: FLIPR Ca2+ flux agonist assay at 5-HT2A (HEK293)
# Format: cell-based
# Condition Description: Ca2+ flux, agonist mode, HEK293
Counter-ions that a name gives are not always drawn.

Compound: CCN(C)CCc1c[nH]c2cccc(O)c12 [Compound 4-HO-MET, reference compound]
5-HT2A % Act @ Max Dose / %: 103
--
Compound: CN(C)CCc1c[nH]c2ccccc12 [DMT, N,N-dimethyltryptamine, reference compound]
5-HT2A % Act @ Max Dose / %: 93.4
--
Compound: c1ccc2c(CCN3CCC3)c[nH]c2c1 [Compound 1, fumarate]
5-HT2A % Act @ Max Dose / %: 73.2
--
Compound: CCN(C)CCc1c[nH]c2ccccc12 [MET, reference compound]
5-HT2A % Act @ Max Dose / %: 36.2
--
Compound: COc1ccc2[nH]cc(CCN(C)C)c2c1 [Compound 5-MeO-DMT, reference compound]
5-HT2A % Act @ Max Dose / %: 106
--
Compound: COc1ccc2[nH]cc(CCN3CCC3)c2c1 [Compound 3, fumarate]
5-HT2A % Act @ Max Dose / %: 99.3

###

# Experimental Details: Stability in rat brain homogenate
# Condition Description: rat brain homogenate (male Sprague Dawley), 1 μM, 37° C., 120 min
Counter-ions that a name gives are not always drawn.

Molecule: c1ccc2c(CCN3CCC3)c[nH]c2c1 [Compound 1, fumarate]
% Compound Remaining (after 120 min), %: 91.9
--
Molecule: COc1ccc2[nH]cc(CCN(C)C)c2c1 [Compound 5-MeO-DMT, reference compound]
% Compound Remaining (after 120 min), %: 0.3
--
Molecule: CN(C)CCc1c[nH]c2cccc(O)c12 [Psilocin, psilocin, reference compound]
% Compound Remaining (after 120 min), %: 46.1
--
Molecule: COc1ccc2[nH]cc(CCN3CCC3)c2c1 [Compound 3, fumarate]
% Compound Remaining (after 120 min), %: 98
--
Molecule: Oc1cccc2[nH]cc(CCN3CCC3)c12
% Compound Remaining (after 120 min), %: 56.8
--
Molecule: CN(C)CCc1c[nH]c2ccccc12 [DMT, N,N-dimethyltryptamine, reference compound]
% Compound Remaining (after 120 min), %: 0.0
